Reference source for all entries: patent US20240360228A1

target: human chemokine (C-C motif) receptor 8 (CCR8) (human, UniProt P51685 1-355); note: test concentration or dose not given here
Sequence (P51685 whole entry): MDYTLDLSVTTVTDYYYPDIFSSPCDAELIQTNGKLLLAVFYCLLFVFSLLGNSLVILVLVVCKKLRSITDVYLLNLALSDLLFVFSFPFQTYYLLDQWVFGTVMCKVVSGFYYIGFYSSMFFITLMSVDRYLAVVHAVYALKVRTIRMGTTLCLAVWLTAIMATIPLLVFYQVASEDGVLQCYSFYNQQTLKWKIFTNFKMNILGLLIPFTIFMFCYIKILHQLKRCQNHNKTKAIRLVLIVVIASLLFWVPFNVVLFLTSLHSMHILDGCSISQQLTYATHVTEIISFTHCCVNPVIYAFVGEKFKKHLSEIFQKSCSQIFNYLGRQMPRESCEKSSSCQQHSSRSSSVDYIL
assayProcedure: cell-based or functional assay
// % hCCR8-Ba/F3 - THP-1 complexes lookup, one value per entry
Provide the reading as a plain figure in %.

Reference set (4 entries):
binder | value
AB12 (antibody, V domains shown, Hybridoma monoclonal; also called antibody 12; clone 12) VH: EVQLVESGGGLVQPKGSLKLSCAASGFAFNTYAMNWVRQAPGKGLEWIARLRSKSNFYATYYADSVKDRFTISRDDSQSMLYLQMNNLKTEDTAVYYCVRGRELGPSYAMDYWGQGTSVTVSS VL: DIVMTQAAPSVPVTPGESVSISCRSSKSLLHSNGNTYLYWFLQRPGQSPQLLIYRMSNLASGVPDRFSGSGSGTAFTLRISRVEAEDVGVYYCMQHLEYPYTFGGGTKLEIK | 1.56
AB4 (antibody, V domains shown, Hybridoma monoclonal; also called antibody 4; clone 4) VH: QVQLKESGPGLVKPSETLSLTCTVSGFSLTGYHVSWVRQPPGKGLEWMGVIWGDGRTTYNSALKSRLSISRDTSKSQVFLKMSSLKTEDTATYYCARGGDSGFAYWGQGTLVTVSS VL: DIQMTQSPASLSASLEEIVTITCQASQDIGNWLSWYQQKPGKSPQLLIYGATSLADGVPSRFSGSRSGTQFSLKISRLQVEDIGIYYCLQAYIVPLTFGSGTKLESK | 0.43
AB13 (antibody, V domains shown, Hybridoma monoclonal; also called antibody 13; clone 13) VH: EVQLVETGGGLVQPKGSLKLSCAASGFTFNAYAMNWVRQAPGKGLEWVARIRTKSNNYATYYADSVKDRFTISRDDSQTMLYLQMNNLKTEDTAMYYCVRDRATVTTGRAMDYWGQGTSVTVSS VL: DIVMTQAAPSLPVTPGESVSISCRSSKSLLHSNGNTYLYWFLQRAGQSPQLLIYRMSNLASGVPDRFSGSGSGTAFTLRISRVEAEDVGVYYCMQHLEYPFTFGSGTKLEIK | 1.16
AB8 (antibody, V domains shown, Hybridoma monoclonal; also called antibody 8; clone 8) VH: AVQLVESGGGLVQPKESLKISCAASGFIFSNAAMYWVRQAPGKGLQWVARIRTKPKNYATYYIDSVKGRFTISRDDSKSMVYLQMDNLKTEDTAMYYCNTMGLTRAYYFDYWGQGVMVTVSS VL: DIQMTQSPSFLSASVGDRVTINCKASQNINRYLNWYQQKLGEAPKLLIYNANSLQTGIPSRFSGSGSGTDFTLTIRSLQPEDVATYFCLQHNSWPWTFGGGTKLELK | 1.78

Could you now consider this next binder?
Give its % hCCR8-Ba/F3 - THP-1 complexes value. Item: AB10 (antibody, V domains shown, Hybridoma monoclonal; also called antibody 10; clone 10) VH: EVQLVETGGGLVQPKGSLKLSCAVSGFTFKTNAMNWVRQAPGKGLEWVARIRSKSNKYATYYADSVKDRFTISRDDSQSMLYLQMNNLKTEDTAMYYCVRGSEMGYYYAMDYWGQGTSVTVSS VL: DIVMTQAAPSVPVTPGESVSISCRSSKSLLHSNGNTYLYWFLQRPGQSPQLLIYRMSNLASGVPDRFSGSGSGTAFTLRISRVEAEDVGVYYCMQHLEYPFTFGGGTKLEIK
0.47
